IC50 reference
Target of assay: purified human C5 (Homo sapiens)
Sequence (P01031 19-1676): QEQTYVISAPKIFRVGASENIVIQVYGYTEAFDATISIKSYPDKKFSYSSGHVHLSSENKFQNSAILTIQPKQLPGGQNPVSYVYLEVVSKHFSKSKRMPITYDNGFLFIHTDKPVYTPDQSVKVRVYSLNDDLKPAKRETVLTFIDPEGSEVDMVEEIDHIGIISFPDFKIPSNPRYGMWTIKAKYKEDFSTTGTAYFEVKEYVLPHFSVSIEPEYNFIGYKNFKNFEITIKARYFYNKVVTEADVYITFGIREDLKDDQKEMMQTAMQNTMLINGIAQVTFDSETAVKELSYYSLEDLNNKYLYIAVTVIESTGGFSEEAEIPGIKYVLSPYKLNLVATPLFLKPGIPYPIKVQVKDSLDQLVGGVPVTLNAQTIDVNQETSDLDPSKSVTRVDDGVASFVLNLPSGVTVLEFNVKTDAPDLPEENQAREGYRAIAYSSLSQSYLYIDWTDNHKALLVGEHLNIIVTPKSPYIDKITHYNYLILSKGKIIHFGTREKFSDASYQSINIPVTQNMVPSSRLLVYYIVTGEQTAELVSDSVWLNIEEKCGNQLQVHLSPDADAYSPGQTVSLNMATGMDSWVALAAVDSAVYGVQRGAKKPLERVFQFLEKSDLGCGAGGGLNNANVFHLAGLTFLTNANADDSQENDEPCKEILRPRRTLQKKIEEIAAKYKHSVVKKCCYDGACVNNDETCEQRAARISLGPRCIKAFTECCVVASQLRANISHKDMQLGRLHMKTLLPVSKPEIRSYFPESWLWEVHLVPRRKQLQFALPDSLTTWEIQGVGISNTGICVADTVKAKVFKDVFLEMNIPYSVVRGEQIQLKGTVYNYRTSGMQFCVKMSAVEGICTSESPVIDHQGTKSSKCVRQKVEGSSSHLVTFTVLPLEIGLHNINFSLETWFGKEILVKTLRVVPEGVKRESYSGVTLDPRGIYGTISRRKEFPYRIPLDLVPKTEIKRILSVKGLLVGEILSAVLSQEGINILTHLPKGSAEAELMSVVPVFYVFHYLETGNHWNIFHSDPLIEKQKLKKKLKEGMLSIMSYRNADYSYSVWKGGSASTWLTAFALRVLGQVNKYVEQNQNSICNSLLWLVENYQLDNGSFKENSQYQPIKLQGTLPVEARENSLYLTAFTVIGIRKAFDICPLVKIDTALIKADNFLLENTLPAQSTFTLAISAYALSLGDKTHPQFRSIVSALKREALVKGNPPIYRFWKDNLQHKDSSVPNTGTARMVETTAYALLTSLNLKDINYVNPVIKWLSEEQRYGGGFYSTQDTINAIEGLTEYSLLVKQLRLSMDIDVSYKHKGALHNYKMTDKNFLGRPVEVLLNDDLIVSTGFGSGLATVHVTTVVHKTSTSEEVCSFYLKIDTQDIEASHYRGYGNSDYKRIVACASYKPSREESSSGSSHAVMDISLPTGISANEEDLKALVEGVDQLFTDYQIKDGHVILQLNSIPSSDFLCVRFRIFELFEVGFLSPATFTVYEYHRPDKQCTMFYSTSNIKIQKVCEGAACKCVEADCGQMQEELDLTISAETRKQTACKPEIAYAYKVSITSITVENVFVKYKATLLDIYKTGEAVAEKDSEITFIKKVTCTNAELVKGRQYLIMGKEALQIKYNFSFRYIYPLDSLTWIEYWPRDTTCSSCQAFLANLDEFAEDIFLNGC
Test protocol: Red blood cell (RBC) hemolysis assay, optical, absorbance 412 nm (Example 10, Table 19)
Type: cell-based
Test parameters: antibody-sensitized sheep erythrocytes, […] human C5 depleted sera, 0.5 nM human C5; read-out: IC50

{"Compound": "COc1ccc(NC(=O)N[C@@H](CO)c2ccccc2O)cc1OCCCC(C)C", "Target of assay": "purified human C5 (Homo sapiens)", "IC50": "< 20 nM"}
{"Compound": "COc1ccc(NC(=O)NC(CO)c2cc(N)ccc2OC)cc1OCCCC(C)C (stereo not shown)", "Target of assay": "purified human C5 (Homo sapiens)", "IC50": "< 20 nM"}
{"Compound": "COc1ccc(NC(=O)NCc2cccc(F)c2O)cc1OCCCC(C)C", "Target of assay": "purified human C5 (Homo sapiens)", "IC50": "< 20 nM"}
{"Compound": "COc1ccc(NC(=O)NCc2cccc(O)c2O)cc1OCCCC(C)C", "Target of assay": "purified human C5 (Homo sapiens)", "IC50": "< 20 nM"}
